# Test system: adjuvant arthritis in the rat (Mycobacterium butyricum)
# Assay Details: Anti-arthritic effect (adjuvant arthritis)
# Format: in vivo, rat (male Sprague-Dawley)
# Condition Info: Table 4, LD50 mouse i.p. / ED25 rat oral
Measurement Kind: Therapeutic Quotient LD50/ED25
# answer = number (no unit)

Determine from records and report Therapeutic Quotient LD50/ED25 for CC(C(=O)O)c1ccc(-n2cc(Cl)cn2)c(Cl)c1 (stereo not shown) [I]
1625

Determine from records and report Therapeutic Quotient LD50/ED25 for CC(C(=O)O)c1ccc(-n2cc(Br)cn2)c(Cl)c1 (stereo not shown) [V]
1625

Determine from records and report Therapeutic Quotient LD50/ED25 for COc1ccc2c(c1)c(CC(=O)O)c(C)n2C(=O)c1ccc(Cl)cc1 [X, indomethacin, reference compound]
450

Determine from records and report Therapeutic Quotient LD50/ED25 for O=C(O)Cc1ccc(-n2cc(Cl)cn2)c(Cl)c1 [IV]
657
